# Tested System: Human DGAT2 (hDGAT2) (Homo sapiens (Human), UniProt Q96PD7)
# Sequence (Q96PD7 whole entry): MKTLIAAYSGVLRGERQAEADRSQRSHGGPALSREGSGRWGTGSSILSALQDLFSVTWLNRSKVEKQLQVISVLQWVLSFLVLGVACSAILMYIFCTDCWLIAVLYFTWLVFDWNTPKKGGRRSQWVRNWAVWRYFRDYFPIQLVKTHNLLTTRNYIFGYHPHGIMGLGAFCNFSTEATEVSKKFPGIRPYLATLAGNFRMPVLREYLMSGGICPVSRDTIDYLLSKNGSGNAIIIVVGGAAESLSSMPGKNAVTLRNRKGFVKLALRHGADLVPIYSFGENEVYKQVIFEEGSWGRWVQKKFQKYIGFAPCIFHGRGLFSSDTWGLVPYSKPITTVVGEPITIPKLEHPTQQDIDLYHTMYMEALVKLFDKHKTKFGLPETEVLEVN
# Method Notes: In vitro DGAT2 assay, IC50 determination with hDGAT2 membrane fraction
# Type: biochemical
# Test Context: geometric mean; background for complete inhibition of DGAT2 obtained with 50 μM (1R,2R)-2-({3′-Fluoro-4′-[(6-fluoro-1,3-benzothiazol-2-yl)amino]-1,1′-biphenyl-4-yl}carbonyl)cyclopentanecarboxylic acid; read-out: DGAT2 IC50
Measurement Type: log10 of IC50 (log10 of the value in µM)

[
  {
    "Smiles Notation": "O=C([C@@H]1CCCN(c2ccc3nc(-c4cccc(OC(F)F)n4)[nH]c3n2)C1)N1CCCC1",
    "Recorded Value": -1.84
  },
  {
    "Smiles Notation": "C[C@@H]1CCN(c2ccc3nc(-c4cccc(OC(F)F)c4)[nH]c3n2)C[C@@H]1C(=O)N(C)C",
    "Recorded Value": -0.36
  },
  {
    "Smiles Notation": "Cc1cccc(=O)n1Cc1nc2ccc(N3CCC[C@@H](C(=O)N4CCCC4)C3)nc2[nH]1",
    "Recorded Value": -0.15
  },
  {
    "Smiles Notation": "O=C([C@@H]1CCCN(c2ccc3nc(C4CC4)[nH]c3n2)C1)N1CCCC1",
    "Recorded Value": 0.64
  },
  {
    "Smiles Notation": "C[C@H](c1nc2ccc(N3CCC[C@@H](C(=O)N4CCCC4)C3)nc2[nH]1)n1cc(Cl)cn1",
    "Recorded Value": -1.47
  },
  {
    "Smiles Notation": "O=C(Nc1ccccn1)c1nc2ccc(N3CCC[C@@H](C(=O)N4CCCC4)C3)nc2[nH]1",
    "Recorded Value": 0.28
  },
  {
    "Smiles Notation": "Cn1cc(Cl)c(-c2nc3ccc(N4CCC[C@@H](C(=O)N5CCCC5)C4)nc3[nH]2)n1",
    "Recorded Value": -0.66
  },
  {
    "Smiles Notation": "O=C([C@@H]1CCCN(c2ccc3nc(-c4cccc(C5(O)CC5)n4)[nH]c3n2)C1)N1CCCC1",
    "Recorded Value": -1.21
  },
  {
    "Smiles Notation": "Cn1ncnc1C1(c2nc3ccc(N4CCC[C@@H](C(=O)N5CCCC5)C4)nc3[nH]2)CC1",
    "Recorded Value": 0.14
  },
  {
    "Smiles Notation": "O=C([C@@H]1CCCN(c2ccc3nc(-c4cccc(-c5nnn[nH]5)c4)[nH]c3n2)C1)N1CCCC1",
    "Recorded Value": 0.53
  },
  {
    "Smiles Notation": "CC(C)(O)c1cc(-c2nc3ccc(N4CCC[C@@H](C(=O)N5CCCC5)C4)nc3[nH]2)ccn1",
    "Recorded Value": -1.14
  },
  {
    "Smiles Notation": "COc1ccccc1C1(c2nc3ccc(N4CCC[C@@H](C(=O)N5CCCC5)C4)nc3[nH]2)CC1",
    "Recorded Value": -0.62
  },
  {
    "Smiles Notation": "C[C@H]1CCCN1C(=O)[C@@H]1CCCN(c2ccc3nc(C4(n5cc(Cl)cn5)CC4)[nH]c3n2)C1",
    "Recorded Value": -0.49
  },
  {
    "Smiles Notation": "O=C([C@@H]1CCCN(c2ccc3nc(-c4ccccc4F)[nH]c3n2)C1)N1CCCC1",
    "Recorded Value": -0.46
  },
  {
    "Smiles Notation": "O=C([C@H]1CN(c2ccc3nc(-c4cccc(C(F)(F)F)n4)[nH]c3n2)CCO1)N1CCCC1",
    "Recorded Value": -0.29
  },
  {
    "Smiles Notation": "N#Cc1cnn(C2(c3nc4ccc(N5CCC[C@@H](C(=O)N6CCCC6)C5)nc4[nH]3)CC2)c1",
    "Recorded Value": -0.64
  },
  {
    "Smiles Notation": "c1cc(-c2nc3ccc(N4CCC[C@H](c5nnc6n5CCC6)C4)nc3[nH]2)nc(C2CC2)n1",
    "Recorded Value": 0.14
  },
  {
    "Smiles Notation": "O=C([C@@H]1CCCN(c2cnc3nc(-c4ccnc(C5CC5)n4)[nH]c3n2)C1)N1CCCC1",
    "Recorded Value": -1.15
  },
  {
    "Smiles Notation": "CC(C)Cc1csc(-c2nc3ccc(N4CCC[C@@H](C(=O)N5CCCC5)C4)nc3[nH]2)n1",
    "Recorded Value": -2.57
  },
  {
    "Smiles Notation": "Cc1csc(-c2nc3ccc(N4CCC[C@@H](C(=O)N5CCCC5)C4)nc3[nH]2)n1",
    "Recorded Value": -1.46
  },
  {
    "Smiles Notation": "O=C([C@@H]1CCCN(c2ccc3nc(C4(c5cccnn5)CC4)[nH]c3n2)C1)N1CCCC1",
    "Recorded Value": -0.27
  },
  {
    "Smiles Notation": "O=C([C@@H]1CCCN(c2ccc3nc(-c4cccc(OC(F)(F)F)c4)[nH]c3n2)C1)N1CCCC1",
    "Recorded Value": -2.77
  },
  {
    "Smiles Notation": "C[C@@H]1CCN(c2ncc3nc(C4(n5cccn5)CC4)[nH]c3n2)C[C@@H]1C(=O)N1CCCC1",
    "Recorded Value": -0.15
  },
  {
    "Smiles Notation": "O=C([C@H]1CN(c2ccc3nc(-c4cncc(C5CC5)n4)[nH]c3n2)CCO1)N1CCCC1",
    "Recorded Value": -0.40
  },
  {
    "Smiles Notation": "CCN(C)C(=O)[C@@H]1CCCN(c2ccc3nc(-c4ccnc(C5CC5)n4)[nH]c3n2)C1",
    "Recorded Value": -0.64
  },
  {
    "Smiles Notation": "O=C([C@@H]1CCCN(c2ccc3nc(C4(n5cc(F)cn5)CC4)[nH]c3n2)C1)N1CCCC1",
    "Recorded Value": -1.01
  },
  {
    "Smiles Notation": "O=C([C@@H]1CCCN(c2ccc3nc(-c4ccnc(C5CC5)n4)[nH]c3n2)C1)N1C[C@@H](F)[C@H](F)C1",
    "Recorded Value": -1.26
  },
  {
    "Smiles Notation": "CN(CC1CC1)C(=O)[C@@H]1CCCN(c2ccc3nc(-c4ccnc(C5CC5)n4)[nH]c3n2)C1",
    "Recorded Value": -0.54
  },
  {
    "Smiles Notation": "O=C([C@H]1CN(c2ccc3nc(-c4cccc(C(F)F)n4)[nH]c3n2)CCO1)N1CCCC1",
    "Recorded Value": -1.04
  },
  {
    "Smiles Notation": "O=C([C@@H]1CCCN(c2ccc3nc(C4(c5cccnc5)CC4)[nH]c3n2)C1)N1CCCC1",
    "Recorded Value": -0.69
  }
]
